Molecular target: human TLR7 (Homo sapiens, UniProt Q9NYK1)
Sequence (Q9NYK1 27-1049): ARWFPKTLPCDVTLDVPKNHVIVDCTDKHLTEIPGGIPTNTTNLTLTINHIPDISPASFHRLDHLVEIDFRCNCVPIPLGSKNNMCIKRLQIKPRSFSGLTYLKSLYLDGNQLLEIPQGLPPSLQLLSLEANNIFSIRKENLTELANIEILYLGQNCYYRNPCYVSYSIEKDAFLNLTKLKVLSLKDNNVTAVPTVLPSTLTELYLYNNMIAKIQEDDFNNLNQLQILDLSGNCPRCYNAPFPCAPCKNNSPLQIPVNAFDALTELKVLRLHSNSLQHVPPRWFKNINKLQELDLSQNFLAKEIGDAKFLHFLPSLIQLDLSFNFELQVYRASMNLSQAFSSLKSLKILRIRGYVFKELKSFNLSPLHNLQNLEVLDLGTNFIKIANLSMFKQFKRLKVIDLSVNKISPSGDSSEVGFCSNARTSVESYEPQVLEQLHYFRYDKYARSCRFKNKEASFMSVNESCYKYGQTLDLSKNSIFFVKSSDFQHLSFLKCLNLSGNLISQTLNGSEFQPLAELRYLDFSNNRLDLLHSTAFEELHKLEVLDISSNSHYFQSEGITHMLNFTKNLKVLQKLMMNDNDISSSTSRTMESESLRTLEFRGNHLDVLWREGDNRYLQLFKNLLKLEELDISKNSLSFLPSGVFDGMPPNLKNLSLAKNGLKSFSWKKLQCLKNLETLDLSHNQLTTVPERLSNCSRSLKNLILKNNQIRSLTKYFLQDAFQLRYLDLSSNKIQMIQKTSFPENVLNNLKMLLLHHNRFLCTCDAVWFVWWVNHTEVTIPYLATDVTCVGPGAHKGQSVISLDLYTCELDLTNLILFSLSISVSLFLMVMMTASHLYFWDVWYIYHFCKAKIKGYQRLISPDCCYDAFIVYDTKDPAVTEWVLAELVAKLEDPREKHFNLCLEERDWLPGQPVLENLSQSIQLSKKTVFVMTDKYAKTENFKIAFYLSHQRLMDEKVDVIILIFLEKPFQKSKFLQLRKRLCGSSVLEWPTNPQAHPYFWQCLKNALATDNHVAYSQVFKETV
Assay: TLR7 inhibition reporter assay (HEK-Blue cells, SEAP reporter, gardiquimod stimulation)
Details: HEK-Blue cells overexpressing human TLR7, SEAP reporter, gardiquimod 7.5 μM

- compound: "CNC(=O)CN1CCC(c2ccc3[nH]c(-c4cc(C)c5ncsc5n4)c(C(C)C)c3c2)CC1 [Example 406]"
  IC50: "< 100 nM"
- compound: "CNCCN1CCC(c2ccc3[nH]c(-c4ccc5c(c4)CCO5)c(C)c3c2)CC1 [Example 669]"
  IC50: "1000 to 50000 nM"
- compound: "CC(C)c1c(-c2cc(C(F)(F)F)c3nccn3c2)[nH]c2ccc(C3CCNCC3)cc12 [Example 136]"
  IC50: "< 100 nM"
- compound: "Cc1cccc2cc(CN3CCC(c4ccc5[nH]c(-c6ccnc7[nH]ncc67)c(C(C)C)c5c4)CC3)c(Cl)nc12 [Example 922]"
  IC50: "1000 to 50000 nM"
- compound: "CC(C)c1c(-c2ccn3nncc3c2)[nH]c2ccc(C3CCN(C4CCOCC4)CC3)cc12 [Example 701]"
  IC50: "< 100 nM"
- compound: "CC(C)c1c(-c2ccc3nccnc3c2)[nH]c2ccc(C3CCNCC3)cc12 [Example 165]"
  IC50: "< 100 nM"
- compound: "Cc1nn2ccc(-c3[nH]c4ccc(C5CCNCC5)cc4c3C(C)C)cc2c1F [Example 146]"
  IC50: "< 100 nM"
- compound: "Cc1cc(-c2[nH]c3ccc(C4CCNCC4)cc3c2C(C)C)cn2c(C)cnc12 [Example 121]"
  IC50: "< 100 nM"
- compound: "CNC(=O)CN1CCC(c2ccc3[nH]c(-c4cc(C)c5nccn5c4)c(C(C)C)c3c2)CC1 [Example 397]"
  IC50: "< 100 nM"
- compound: "CC(C)c1c(-c2ccnc3[nH]ncc23)[nH]c2ccc(C3CCN(C(=O)CCN(C)C)CC3)cc12 [Example 643]"
  IC50: "< 100 nM"
- compound: "Cc1c(-c2[nH]c3ccc(C4CCNCC4)cc3c2C(C)C)cn2ccnc2c1Cl [Example 133]"
  IC50: "< 100 nM"
- compound: "CC(C)c1c(-c2ccnc3[nH]ncc23)[nH]c2ccc(C3CCN(Cc4csc(N)n4)CC3)cc12 [Example 925]"
  IC50: "< 100 nM"
- compound: "CCN(C)C(=O)c1cn2cc(-c3[nH]c4ccc(C5CCNCC5)cc4c3C(C)C)cc(C)c2n1 [Example 266]"
  IC50: "< 100 nM"

Origin of values: patent US11739098B2
